Cited source for all entries: patent US20250090540A1

# assayed system: H1047R PIK3CA enzyme (Homo sapiens, UniProt P42336, H1047R)
# Sequence (P42336 whole entry H1047R): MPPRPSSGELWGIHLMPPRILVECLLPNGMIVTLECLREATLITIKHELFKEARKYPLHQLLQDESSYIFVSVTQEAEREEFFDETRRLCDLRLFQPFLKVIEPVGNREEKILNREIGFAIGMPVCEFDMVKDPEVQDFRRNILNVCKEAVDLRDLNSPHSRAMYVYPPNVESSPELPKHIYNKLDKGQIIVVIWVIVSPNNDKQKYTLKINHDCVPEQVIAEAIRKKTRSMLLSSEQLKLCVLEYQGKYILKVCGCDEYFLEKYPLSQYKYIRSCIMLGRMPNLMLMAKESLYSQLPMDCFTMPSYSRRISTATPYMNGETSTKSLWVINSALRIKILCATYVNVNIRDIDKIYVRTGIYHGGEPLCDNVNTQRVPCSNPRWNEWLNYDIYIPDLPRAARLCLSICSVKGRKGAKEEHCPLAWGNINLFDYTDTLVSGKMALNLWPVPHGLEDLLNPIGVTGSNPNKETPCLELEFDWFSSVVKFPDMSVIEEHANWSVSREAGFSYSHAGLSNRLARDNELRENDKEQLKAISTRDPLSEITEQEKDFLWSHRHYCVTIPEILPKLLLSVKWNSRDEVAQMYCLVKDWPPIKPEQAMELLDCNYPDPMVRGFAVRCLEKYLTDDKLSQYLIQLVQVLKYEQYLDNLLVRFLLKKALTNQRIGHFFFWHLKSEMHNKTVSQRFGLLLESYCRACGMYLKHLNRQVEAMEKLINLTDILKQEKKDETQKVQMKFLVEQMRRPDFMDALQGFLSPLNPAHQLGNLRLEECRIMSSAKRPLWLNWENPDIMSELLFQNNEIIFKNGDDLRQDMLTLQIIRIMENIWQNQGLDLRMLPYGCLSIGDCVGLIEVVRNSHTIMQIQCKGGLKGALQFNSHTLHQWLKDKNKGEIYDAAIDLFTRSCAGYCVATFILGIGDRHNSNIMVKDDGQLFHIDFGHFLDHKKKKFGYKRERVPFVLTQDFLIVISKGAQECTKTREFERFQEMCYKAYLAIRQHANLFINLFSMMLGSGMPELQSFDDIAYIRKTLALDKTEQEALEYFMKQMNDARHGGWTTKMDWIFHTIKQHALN
# Sequence (P27986 whole entry partner): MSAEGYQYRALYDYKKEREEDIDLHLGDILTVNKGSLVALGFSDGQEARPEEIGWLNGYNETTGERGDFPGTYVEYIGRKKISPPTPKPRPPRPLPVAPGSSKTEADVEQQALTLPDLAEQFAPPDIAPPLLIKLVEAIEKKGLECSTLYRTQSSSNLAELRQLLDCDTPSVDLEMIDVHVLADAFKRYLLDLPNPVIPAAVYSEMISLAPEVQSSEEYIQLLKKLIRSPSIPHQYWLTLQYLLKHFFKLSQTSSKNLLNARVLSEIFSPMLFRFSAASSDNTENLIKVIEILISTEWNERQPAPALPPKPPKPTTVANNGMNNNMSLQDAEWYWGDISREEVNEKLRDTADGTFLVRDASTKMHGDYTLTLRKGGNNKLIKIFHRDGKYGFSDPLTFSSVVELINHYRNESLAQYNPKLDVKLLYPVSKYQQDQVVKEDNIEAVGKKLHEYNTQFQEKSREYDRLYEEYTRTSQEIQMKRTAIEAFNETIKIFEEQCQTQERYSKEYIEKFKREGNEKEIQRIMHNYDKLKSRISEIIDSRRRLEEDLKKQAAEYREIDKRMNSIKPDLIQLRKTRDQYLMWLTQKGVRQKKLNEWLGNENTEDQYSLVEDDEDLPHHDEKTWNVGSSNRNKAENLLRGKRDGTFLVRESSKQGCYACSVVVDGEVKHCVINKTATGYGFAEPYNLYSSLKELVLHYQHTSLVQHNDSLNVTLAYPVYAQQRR
# test method notes: ADP-Glo Biochemical PIK3CA Kinase Assay
# assay conditions: ADP-Glo biochemical PIK3CA kinase assay
pIC50: −log10 of the molar value.
assay metric: pIC50

Worked cases, pIC50 given:
CNC(=O)c1cnc(Nc2ccc3cccnc3c2)c(NC(=O)c2csc3ccccc23)c1 [I-740]	5.00 to 6.00
CNC(=O)c1cnc(Nc2cc(F)ccc2Cl)c(NC(=O)N2CCc3ccccc32)c1 [I-797]	4.00 to 5.00
CNC(=O)c1cnc(Nc2ccccc2C)c(NC(=O)c2ccc3c(c2)COC3)c1 [I-447]	4.00 to 5.00
O=C(Nc1ccn2cnnc2c1Nc1ccccc1Cl)c1cc(F)cc(C(F)(F)F)c1 [I-794]	4.00 to 5.00
Cc1ccccc1Nc1ncc(C(=O)N[C@@H]2COC[C@@H]2F)cc1NC(=O)c1csc2ccccc12 [I-590]	6.30 to 7.00
Cc1ccccc1Nc1ncc(C(=O)NCC(O)C2CCCC2)cc1NC(=O)c1csc2ccccc12 (stereo not drawn) [I-610]	6.30 to 7.00
CCc1nccnc1Nc1ncc(C(=O)NC)cc1NC(=O)c1csc2ccccc12 [I-734]	5.00 to 6.00
Cc1ccccc1Nc1ncc(C(=O)Nc2cnn3cccc(F)c23)cc1NC(=O)c1csc2ccccc12 [I-500]	4.00 to 5.00

Now take the following compound into account.
(Q) Determine from records and report pIC50 for CNC(=O)c1cnc(Nc2ccccc2C)c(NC(=O)CCc2cc(Cl)ccc2Cl)c1 [I-517]
(A) 4.00 to 5.00

====

# assayed system: H1047R PIK3CA enzyme (Homo sapiens, UniProt P42336, H1047R)
# test method notes: ADP-Glo Biochemical PIK3CA Kinase Assay
pIC50: −log10 of the molar value.
Measured pIC50 accompanies every entry in the list below.

CNC(=O)c1cnc(Nc2ccccc2C)c(NC(=O)Cc2c(C)nc(N)[nH]c2=O)c1	4.00 to 5.00
Cc1ccccc1Nc1ncc(C(=O)NS(C)(=O)=O)cc1NC(=O)c1cc(F)cc(C(F)(F)F)c1	4.00 to 5.00
O=C(Nc1cc(C(=O)NC2CS(=O)(=O)C2)cnc1N1CCCc2ccccc21)c1cc(F)cc(C(F)(F)F)c1	6.00 to 6.30
CNC(=O)c1cnc(Nc2ccccc2)c(NC(=O)c2cc(F)cc(C(F)(F)F)c2)c1	4.00 to 5.00
CNC(=O)c1cnc(Nc2ccccc2C)c(NC(=O)c2ccc(Cl)c(C#N)c2)c1	4.00 to 5.00
Cc1ccccc1Nc1cc(=O)n(C)cc1NC(=O)c1csc2ccccc12	5.00 to 6.00
Cc1ccccc1Nc1ncc(C(=O)NC2CS(=O)(=O)C2)cc1NC(=O)c1cc2ccccc2o1	4.00 to 5.00
CNC(=O)c1cnc(Nc2ccccc2C)c(NC(=O)c2nsc3ccccc23)c1	6.00 to 6.30
Cc1ccccc1Nc1ncc(-c2cnn(C)c2)cc1NC(=O)c1cccc2cccnc12	4.00 to 5.00
Cc1ccccc1Nc1ncc(C(=O)NCc2nccs2)cc1NC(=O)c1cc(F)cc(C(F)(F)F)c1	6.30 to 7.00

(Q) Determine from records and report pIC50 for `O=C(NC1CC(F)(F)C1)c1cnc(N2CCOc3ccccc32)c(NC(=O)c2csc3ccccc23)c1`
(A) 6.30 to 7.00

(Q) Determine from records and report pIC50 for `CNC(=O)c1cnc(Nc2ccccc2C)c(NC(=O)c2csc3c2CCCC3)c1`
(A) 5.00 to 6.00

(Q) Determine from records and report pIC50 for `CNC(=O)c1cnc(Nc2ccccc2C)c(NC(=O)C2(c3ccc(C)cc3)CC2)c1`
(A) 4.00 to 5.00

(Q) Determine from records and report pIC50 for `CNC(=O)c1cnc(Nc2ccccc2C)c(NC(=O)c2n[nH]c3ccccc23)c1`
(A) 4.00 to 5.00

(Q) Determine from records and report pIC50 for `Cc1ccccc1Nc1ncc(-c2cnn(C)c2)cc1NS(=O)(=O)c1ccccc1`
(A) 4.00 to 5.00

(Q) Determine from records and report pIC50 for `CNC(=O)c1cnc(Nc2ccccc2CN)c(NC(=O)c2csc3ccccc23)c1`
(A) 4.00 to 5.00

(Q) Determine from records and report pIC50 for `Cc1ccccc1Nc1ncc(-c2cnn(CCO)c2)cc1NC(=O)c1cc(F)cc(C(F)(F)F)c1`
(A) 6.00 to 6.30

(Q) Determine from records and report pIC50 for CNC(=O)c1cnc(N2CCC(C)c3ccccc32)c(NC(=O)c2cc(F)cc(C(F)(F)F)c2)c1 (stereo not drawn)
(A) 5.00 to 6.00
